Measured values drawn from PubChem BioAssay (NCI) for this set.

Below: a set of entries, each annotated with reported TGI.
test system: RXF 393 renal; assay: NCI tumour cell line growth inhibition, 48 h
Give a bare numeral; the unit µM is implied.

// below: answered compounds
• Cc1ccc(C2=C(c3ccccc3)C(c3ccccc3)Oc3ccc(C)cc32)cc1 (stereo not given) = 13.3
• c1cncc(C2Nc3cccc4cccc(c34)N2)c1 = 33
• COc1ccc(/C=C2\Sc3nnc(CNc4ccc(Cl)cc4)n3N=C2c2cc(F)c(Cl)cc2Cl)cc1OC = 74.2

Ask | Name the reported TGI value associated with the compound COc1ccc2c(c1)CCCN2S(=O)(=O)c1ccccc1[N+](=O)[O-]
Reply | 55.9

Ask | May I ask what TGI has been recorded for CC1=CC(C)C(C)N(CCNS(=O)(=O)c2ccc(C)cc2)c2ccccc21 (stereo not given) ?
Reply | 17.7

Ask | Entry COc1cc(S(=O)(=O)Nc2ccc(-c3csc(N4C(=O)C(Cl)C4c4ccccc4)n3)cc2)ccc1Cl (stereo not given) has what TGI?
Reply | 23.1

Ask | Form field: reported TGI of CN(C)CCn1c(=O)c2ccc3c4c(nn3CCN(C)C)c3cc([N+](=O)[O-])ccc3n(c1=O)c24
Reply | 0.434

Ask | For N#Cc1c(Cl)nc2ccccc2c1N=[N+]=[N-] , what is its reported TGI?
Reply | 2.93

----------
Listed next: entries and their corresponding GI50.
tested on: A549 NSCLC; test: NCI tumour cell line growth inhibition, 48 h

Use these answered entries as a reference point.
- COc1ccc(/C=C2\CN(Cc3cn(CCNc4ccnc5cc(Cl)ccc45)nn3)C/C(=C\c3ccc(OC)c(OC)c3)C2=O)cc1OC: 4.73 µM
- CN1CCN(Cc2ccc(NC(=O)c3cncc(C#Cc4cncc5nccnc45)c3)cc2C(F)(F)F)CC1: 4.3 µM
- CC(=O)[CH-]C(=O)c1ccccc1.CC(=O)[CH-]C(=O)c1ccccc1.Cl.[O-]c1ccccn1.[O-]c1ccccn1.[Ti+4]: > 100 µM

# next molecule below
Ask | # query: GI50 | item CCCCNC(=O)c1cc(NCc2cc(O)ccc2O)ccc1O | system: A549 NSCLC
Reply | 21.9 µM

----------
tested on: KM12 colon; assay: NCI tumour cell line growth inhibition, 48 h
measured_endpoint: TGI

Ask | GET /values?readout=TGI&item= Cc1nn2c(C(=O)N/N=C/c3ccc([N+](=O)[O-])cc3)c(C)nc2s1
Reply | > 100 µM

Ask | Return reported TGI; argument: CC1=CC(C)C(C)N(CCNS(=O)(=O)c2ccc(C)cc2)c2ccccc21 (configuration not stated)
Reply | 37.3 µM

----------
Quick reference: TGI of the listed items.
system: SW-620 colon; test: NCI tumour cell line growth inhibition, 48 h

Answered examples (4):
* C[n+]1c(-c2ccc(/C=N/NC(=O)c3ccc(C(=O)N/N=C/c4ccc(-c5cn6ccccc6[n+]5C)cc4)cc3)cc2)cn2ccccc21 | > 1000 µM
* Cc1cc2nc3cc(C)c(N)cc3[n+](-c3ccccc3)c2cc1N | > 45.2 µM
* CCCCCCCCCCCCOc1ccc(/C=C/C2=[N+](CCCl)CCO2)cc1 | > 100 µM
* Cc1ccc(C(O)(c2ccc(C)cc2)c2ccccn2)cc1 | > 100 µM

Okay, next one:
Ask | Bench note: what TGI did NC(=O)/C=c1/c2ccccc2n2nc3ccccc3c12 show?
Reply | 44.5 µM
